Values compiled from patent US9868767B2.

- TEST TARGET: K-Ras (Homo sapiens, UniProt P01116, G12V)
- Construct: GST
- ASSAY OVERVIEW: Competition between labeled peptide 2 and DCAI for K-Ras
ATTRIBUTE MEASURED: IC50
Remember to quote the unit after the number.

Hello, please tell me recorded IC50 for this one: Cc1[nH]c2cc(Cl)cc(Cl)c2c1CCN
1.4 mM

----------
- TEST TARGET: human TNFα (Homo sapiens, UniProt P01375)
- Construct: extracellular domain of human TNFα (aa 77-233); made in house; host or cells: E. coli BL21(DE3)
- ASSAY OVERVIEW: Fluorescence anisotropy (FA) binding to TNFα
- CONDITION SUMMARY: resynthesized, FITC-labeled, HPLC-purified peptide
ATTRIBUTE MEASURED: Kd (nM)
One number for each entry, in nM.

Hello, please tell me recorded Kd for this one: bicyclo(Phg-Tyr-D-Ala-Lys-Tyr-D-Phe-Gly-D-Lys-His-Dap) [Necrostatin C1]
450
